read-out: Vascular endothelial growth factor receptor 2 (Homo sapiens); assay: BSK_4H_VEGFRII: BioMAP Diversity Plus: 4H Assay for Vascular endothelial growth factor receptor 2 (VEGFR2) Biomarker Activity (AID 2283031); details: primary human endothelial cells (HUVEC); actives raise or lower the signal
Active and inactive are the calls of the source. How the source made its calls: active means hit-call score of the fitted dose curve at least 0.9, where 1 is the maximum; inactive means score below 0.9.
observable: outcome

• COP(=O)(OC)OC=C(Cl)Cl = inactive
• OCCOc1ccccc1 = inactive
• CC1(C)C(C=C(Cl)Cl)C1C(=O)OC(C#N)c1ccc(F)c(Oc2ccccc2)c1 (stereo not drawn) = inactive
• CN1CSC(=S)N(C)C1 = inactive
• COc1nn(CSP(=S)(OC)OC)c(=O)s1 = inactive
• O=C(O)COc1ccc(Cl)cc1Cl = inactive
• CCN(CC)C(=O)SCc1ccc(Cl)cc1 = inactive
• COP(=S)(OC)Oc1ccc(SC)c(C)c1 = inactive
